Data provenance: patent US9359293B2

Assay system Sirt1 (Homo sapiens (Human)); read-out recorded as pIC50.
pIC50: −log10 of the molar value.
ASSAY_READOUT: pIC50

> print(dat)
                                   compound   val
1  CC(=S)NCCCCC(NC(=O)OCc1ccccc1)C(=O)Nc1ccccc1 (stereo not drawn)  4.52
2  CCCC(=S)NCCCCC(NC(=O)OCc1ccccc1)C(=O)Nc1ccccc1 (stereo not drawn)  5.62
3  CCCCCCC(=S)NCCCCC(NC(=O)OCc1ccccc1)C(=O)Nc1ccccc1 (stereo not drawn)  6.51

---

Listed here are compounds together with their documented IC50.
Target: UniProtKB Q9NXA8
Sequence (Q9NXA8 37-310): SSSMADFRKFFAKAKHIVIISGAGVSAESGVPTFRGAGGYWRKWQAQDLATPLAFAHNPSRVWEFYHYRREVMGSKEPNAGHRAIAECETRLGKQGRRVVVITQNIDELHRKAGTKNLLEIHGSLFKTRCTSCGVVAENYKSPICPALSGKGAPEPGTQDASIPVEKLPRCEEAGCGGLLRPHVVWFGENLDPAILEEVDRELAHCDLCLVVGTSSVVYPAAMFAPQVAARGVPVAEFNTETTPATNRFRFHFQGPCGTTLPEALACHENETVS
ASSAY_READOUT: IC50

> print(dat)
                                   compound  assay.readout       val
1  CCCC(=S)NCCCCC(NC(=O)OCc1ccccc1)C(=O)Nc1ccccc1 (stereo not shown)           IC50  > 205 µM
2  CC(=S)NCCCCC(NC(=O)OCc1ccccc1)C(=O)Nc1ccccc1 (stereo not shown)           IC50  > 205 µM
3  CCCCCCCCCCCCCC(=S)NCCCCC(NC(=O)OCc1ccccc1)C(=O)Nc1ccccc1 (stereo not shown)           IC50  > 205 µM
4  CCCCCCC(=S)NCCCCC(NC(=O)OCc1ccccc1)C(=O)Nc1ccccc1 (stereo not shown)           IC50  > 205 µM
